tested on: monocytic THP1 cells infected with HIV VSV-G pseudotyped GFP-NEF reporter virus; assay: cells; assay type: cell-based; conditions: Human immunodeficiency virus 1, THP-1, 24 h
pEC50: −log10 of the molar value.
value-type: pEC50

molecule	value-type	readout-value
Cc1cc(/C=C/C#N)cc(C)c1Oc1nc(NC23CC(C#N)(C2)C3)nc2c(=O)n(C)n(C)c12	pEC50	7.51
COc1ccc(Cn2cnc3nc(NC45CC(C#N)(C4)C5)nc(Oc4c(C)cc(/C=C/C#N)cc4C)c32)cc1	pEC50	7.04
Cc1cc(/C=C/C#N)cc(C)c1Oc1nc(NC23CC(C#N)(C2)C3)nc2nc(C(C)O)n(C(F)F)c12 (stereo not shown)	pEC50	7.74
Cc1cc(/C=C/C#N)cc(C)c1Oc1nc(NC23CC(C#N)(C2)C3)nc2nc(C3CCOCC3)n(C(F)F)c12	pEC50	7.35

src = patent US20250333424A1
